System: Plasmodium falciparum
Assay text: Calibr Malaria Delayed Death Assay SOP
Assay type: functional, organism-based
Set-up: scale not given: in the data most compounds retested in dose-response had high values
Condition summary: concentration 4.99e-06 (unit not given; other assays of the set use mol/L)
Hit rate of the full screen: of about 38,000 compounds, about 1,200 (3.2%) showed an effect of 50% or more. The median lay at about -58%. This is one part of a sample in which strong results are shown more often than they occur.
Rule: Percent Effect below -20% gives rule met. Equal to or above -20% gives rule not met.

Some solved entries appear below for comparison.
[[record]]
compound = "COc1ccc2oc(C(C)NC(=O)NCc3noc(C)n3)c(C)c2c1 (stereo unspecified)"
test_system = "Plasmodium falciparum"
qualitative_label = "rule not met"

[[record]]
compound = "Cc1ccc(CN2Cc3nccn3CC(Cn3cccn3)C2)s1.O=C(O)C(F)(F)F (stereo unspecified)"
test_system = "Plasmodium falciparum"
qualitative_label = "rule met"


Query: State whether -20% exceeds Percent Effect recorded for Cc1ccc(S(=O)(=O)N2CCN(C)C3(CCC(=O)N(C)CC3)C2)s1 (stereo unspecified) .
Reply: rule met

Query: State whether -20% exceeds Percent Effect recorded for Cc1csc(C2(NC(=O)CCNC(=O)C(C)(C)C)CCCC2)n1 .
Reply: rule met

Query: State whether -20% exceeds Percent Effect recorded for CN(CCCc1ccccc1)C(=O)c1ccccc1NCC(=O)O .
Reply: rule not met

---

Please go through the items and note down their Percent Effect.
Tested on: Plasmodium falciparum
Assay text: Calibr Malaria Delayed Death Assay SOP
Format: functional, organism-based
Parameters: scale not given: in the data most compounds retested in dose-response had high values
Condition summary: concentration 4.99e-06 (unit not given; other assays of the set use mol/L)
About 1,200 (3.2%) of roughly 38,000 compounds showed an effect of 50% or more. The median lay at about -58%. This is one part of a sample in which strong results are shown more often than they occur.

Some entries whose results are on file:
[[record]]
compound = "O=C(Nc1c(N2CCCC2)cccc1N1CCCC1)c1ccccn1"
assay_result = "-13.71%"

[[record]]
compound = "Cc1nccn1Cc1nnc(C2CCCN(c3ncccc3F)C2)n1C (stereo not drawn)"
assay_result = "-123.3%"

[[record]]
compound = "Cc1ccc(CN(Cc2ccccn2)C(=O)[C@H]2CC[C@@H](N)C2)s1"
assay_result = "-62.59%"

[[record]]
compound = "CNCC[C@H]1CC(C)(C)Oc2ccc(OC)cc21"
assay_result = "72.51%"

[[record]]
compound = "NC(=O)N1CCC2(CCN(Cc3ccccn3)C2=O)C1.O=C(O)C(F)(F)F (stereo not drawn)"
assay_result = "-110.7%"


Look at each compound and report its Percent Effect.
1. Cc1ccc(CN(Cc2[nH]cnc2C)C2CC(C)(C)NC(C)(C)C2)o1.O=C(O)CC(O)(CC(=O)O)C(=O)O
2. O=S(=O)(c1ccc(F)cc1Cl)N1CCCC1c1ccncc1 (stereo not drawn)
3. CC(C)N1CCC(Cc2cc(-c3cc(F)ccc3C(=O)O)ncn2)C1 (stereo not drawn)
4. O=C(NCc1ccccc1)NCC1CCN(Cc2ccsc2)CC1
5. Cc1cccc(CN(Cc2cccnc2)C2CC(C)(C)NC(C)(C)C2)n1.O=C(O)CC(O)(CC(=O)O)C(=O)O
6. CS(=O)(=O)CCCNC(=O)NC1CC(c2cccc(Cl)c2)C1 (stereo not drawn)
7. Cc1ccsc1CN(C)Cn1nccc1-c1cccnc1
8. CCC1CN(C(=O)c2ccc(O)c(C)c2)CCN1C(C)C (stereo not drawn)

Reply:
["-80.85%", "-22.12%", "-123.1%", "-54.93%", "40.19%", "-17.33%", "-75.2%", "-125.9%"]

Look at each compound and report its Percent Effect.
1. COc1ccccc1C(=O)Nc1c(F)c(C(=O)NCCC(C)C)nn1C
2. CCCC(=O)N1CCC(N2CC[C@@](O)(CCOC)[C@H](C)C2)CC1
3. Cc1nc(N)ccc1CC1COc2ccccc2C1 (stereo not drawn)

Reply:
1: -92.84%; 2: -32.76%; 3: 39.32%

Look at each compound and report its Percent Effect.
1. CN(Cc1cccnc1)CC1CC12CCN(Cc1nccs1)CC2 (stereo not drawn)
2. O=C(Nc1cccnc1)N(Cc1ccccc1)C1CC1
3. COCC(=O)NCC[C@H]1CC(C)(C)Oc2ccccc21

Reply:
-24.57%
-66.01%
-148.4%

Look at each compound and report its Percent Effect.
1. CC1(C)CC(N(Cc2cccnc2)Cc2cccc(F)c2)CC(C)(C)N1.O=C(O)CC(O)(CC(=O)O)C(=O)O
2. O=S(=O)(Cc1c(F)cccc1Cl)NCCCN1CCCCCC1
3. CS(=O)(=O)CCCNCc1c(Cl)cccc1N1CCCC1
4. Cc1ccc(N(CC(=O)N2CCCCC2)C(=O)C2CCCO2)cc1 (stereo not drawn)

Reply:
["75.47%", "47.99%", "71.32%", "-77.19%"]

---

System: Plasmodium falciparum
Assay text: Calibr Malaria Delayed Death Assay SOP
Assay type: functional, organism-based
Parameters: scale not given: in the data most compounds retested in dose-response had high values
Condition summary: concentration 4.99e-06 (unit not given; other assays of the set use mol/L)
Screen size: about 38,000 compounds; about 1,200 (3.2%) showed an effect of 50% or more. The median lay at about -58%. The full list was thinned out, with strong results kept by preference.
Metric: Percent Effect (%)
Answers are plain numbers, in %.

Some entries whose results are on file:
[[record]]
molecule = "O=C(CN(CC(O)c1ccc(F)cc1)C1CC1)Nc1cccnc1 (configuration not stated)"
metric = "Percent Effect"
assay_result = -24.09

[[record]]
molecule = "Cc1cccc(N2CCN(CCCNC(=O)c3cn[nH]c3C)CC2)c1"
metric = "Percent Effect"
assay_result = -117.5

[[record]]
molecule = "CCOCCCn1c(NC(=O)c2cc(C)no2)nc2ccccc21"
metric = "Percent Effect"
assay_result = -48.09

[[record]]
molecule = "CN(CC1(CO)CCC1)C(=O)c1cc(COc2ccccc2F)[nH]n1"
metric = "Percent Effect"
assay_result = -88.13

[[record]]
molecule = "CSCc1noc(CN2CC(Cc3ccccc3)CC2=O)n1 (configuration not stated)"
metric = "Percent Effect"
assay_result = -65.09

[[record]]
molecule = "O=S(=O)(c1ccc(F)cc1F)N1CCCCC1c1nnc2n1CCCC2 (configuration not stated)"
metric = "Percent Effect"
assay_result = -68.7

[[record]]
molecule = "NCc1ccnc(Oc2ccccc2)c1"
metric = "Percent Effect"
assay_result = -83.78

[[record]]
molecule = "Cn1cc(C2CCCN2C(=O)CCCOc2ccc(F)cc2)cn1 (configuration not stated)"
metric = "Percent Effect"
assay_result = -105.8


Look at each molecule and report its Percent Effect.
1. NCC(=O)N1CCC(c2cncc(Oc3cccnc3)n2)CC1
2. CCOC(=O)C(C)NC(=O)N1CCN(c2nc3ccccc3n2C)CC1 (configuration not stated)

Reply:
-100.1
-114

Look at each molecule and report its Percent Effect.
1. COCCNC(=O)C1CN(C(N)=O)Cc2ccnn2C1 (configuration not stated)
2. CCS(=O)(=O)N1CCc2cc(C(=O)N(C)C)c(NCC3CC3)nc2CC1

Reply:
[-83.21, -99.83]

---

Please go through the items and note down their Percent Effect.
System: Plasmodium falciparum
Assay text: Calibr Malaria Delayed Death Assay SOP
Assay type: functional, organism-based
Parameters: scale not given: in the data most compounds retested in dose-response had high values
Condition summary: concentration 4.99e-06 (unit not given; other assays of the set use mol/L)
Screen size: about 38,000 compounds; about 1,200 (3.2%) showed an effect of 50% or more. The median lay at about -58%. Shown is part of a subset that was picked to be rich in strong results.
Give bare numbers, in %.

Some entries whose results are on file:
[[record]]
molecule = "CCC(O)(CNCc1ncc[nH]1)c1ccc(Br)cc1 (centres undefined)"
metric = "Percent Effect"
assay_result = 65.85

[[record]]
molecule = "Cc1cccc(CSc2nnc(C)n2CC(N)=O)c1"
metric = "Percent Effect"
assay_result = -106.3

[[record]]
molecule = "COCCCNC(=O)Cn1c(-c2cccc(Cl)c2)nc(C)cc1=O"
metric = "Percent Effect"
assay_result = -51.33

[[record]]
molecule = "CC(C)CC(=O)NCCCn1cncn1"
metric = "Percent Effect"
assay_result = -49.15

[[record]]
molecule = "CCC(O)(CNCc1ccncc1)c1ccc(Br)cc1 (centres undefined)"
metric = "Percent Effect"
assay_result = 3.807

[[record]]
molecule = "C[C@@H]1CN(C(=O)C2CCS(=O)(=O)CC2)CC[C@@]1(O)C1CCOCC1"
metric = "Percent Effect"
assay_result = 70.51


Look at each molecule and report its Percent Effect.
1. Cc1nc(C(=O)N2CC[C@@]3(C[C@H](NS(C)(=O)=O)CCO3)C2)cs1
2. CN(C)CC(C)(O)CNC(=O)Nc1sc2ccccc2c1Cl (centres undefined)
3. CC(Cn1cccn1)NCc1csc(Cc2ccccc2)n1 (centres undefined)
4. CS(=O)(=O)CCNC(=O)Nc1sc2ccccc2c1Cl
5. CC(C)(C)OC(=O)N1CCCc2ccc(NCc3ncc[nH]3)cc21
6. Cc1cc(=O)[nH]c(=O)n1-c1ccccc1Br

Reply:
1. -13.09
2. 61
3. 5.726
4. -106.1
5. 26.46
6. -82.44

Look at each molecule and report its Percent Effect.
1. CS(=O)(=O)c1ccc(CNC(=O)NCc2cc[nH]n2)cc1
2. O=C(O)c1ccc(CNC(=O)C2CCN(Cc3ccco3)CC2)s1
3. COc1nccc(N2CC[C@H](N3CCOCC3)[C@H](CCCO)C2)c1C#N
4. C[C@@H]1CN(C(=O)C2CCS(=O)(=O)CC2)C[C@@]1(O)C1CC1
5. CC(=O)N1CCCN(C(=O)NCc2cc[nH]n2)CC1
6. Cc1cc2nc(-c3ccccc3)cc(NCC3CCCOC3)n2n1 (centres undefined)

Reply:
[-45.13, -25.63, -24.24, -43.61, -10.61, 20.07]
